experiment: Components of the Cytosolic LPS Sensing Pathway: Gene Identification via Genome-wide siRNA Screen; settings: RAW264.7 macrophages, IL-1a HTRF, actives lie on both sides, screened at 100 nM (by protocol), cells primed 5 h with Pam3CSK4 first;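 also: robust z of the log signal after scaling to non-targeting control siRNA wells of the plate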
Out of some 53,000 sequences screened, about 3,700 (7%) were called active. Many of the other results were omitted from the sample, so actives are more common in it than they were.
Task for the reader: assign each of the following sequences its reported z-score.
Give bare numbers.

Q. Supply z-score value. Item: CCUCGAGUUCGGAAACAGATT against Chd8
A. -1.06

Q. // fetch z-score given entry GAUUUCAAGAUCCAGACUCTT against Riiad1
A. -0.435

Q. Return z-score for the following sequence: GGGCCAAGAGCUUCUUUGATT against Ahr
A. -1.46

Q. Supply recorded z-score for GUGACAAUGAAAAAUGUGUTT against Clec4b1 here.
A. -2.42

Q. Give the measured z-score for GCCAAAGUAGUUGAACCUUTT against Cibar1
A. -0.48

Can you give me z-score for all of these, one by one?
1. GCCUGGAAUGCAGAAUCGATT against Vwa2
2. GGCUCUUGUCACAUGAUCATT against Jagn1
3. GCACUUUAAGAGACAAUGUTT against Gpr63
4. GGCUUUUGAAGCCAUCAAGTT against Mrpl57
5. GCUUUCUGGGUAACAUAGGTT against Ubqln3

A.
1: -0.0276; 2: -1.77; 3: 0.302; 4: -1.2; 5: -1.46

Give one value of z-score per listed sequence.
1. GGCUCAGGCAUUGUAACCATT against Dnm3
2. GCCUCUUAGUAGAGACAGUTT against Naa80

A.
[-0.177, -0.725]

I would be grateful if you could provide z-score for each of the following entries.
1. GGAAGGAGGAAAAGUAGGUTT against Peli1
2. GCUCAGUUUCUCAUGAAACTT against Tespa1

A.
-0.00852
0.206

Each sequence below has a recorded value; state its z-score.
1. GGCCUGAGUAUAAAGUUAGTT against Wbp2
2. GCCAAAUGAGUCAGAUACUTT against Ak3
3. CGAUGUGGACGAGAAGCUATT against Asap2

A.
1.6
-0.402
-0.702
